target: T1, soluble CGRP receptor (extracellular domains of human CRLR and human RAMP1) (human, UniProt Q16602 23-133; O60894 26-117); test: SPR (Biacore T200), antibody captured by goat anti-human Fc, soluble CGRP receptor as analyte, 1:1 model
T1 construct: the tag and the thrombin site are not described; also called soluble human CGRP receptor; CGRP receptor ECD
T1 sequence (Q16602 23-133, chain 1 of 2): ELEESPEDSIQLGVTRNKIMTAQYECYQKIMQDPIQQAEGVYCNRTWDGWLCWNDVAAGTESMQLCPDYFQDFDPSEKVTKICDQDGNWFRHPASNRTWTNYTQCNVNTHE
T1 sequence (O60894 26-117, chain 2 of 2): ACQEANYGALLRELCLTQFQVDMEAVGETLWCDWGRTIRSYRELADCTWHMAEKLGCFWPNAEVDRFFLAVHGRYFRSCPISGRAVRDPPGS
Item-by-item account of koff
measure: koff (s⁻¹)

binder="wild-type 4E4 anti-CGRP receptor monoclonal antibody (antibody, human IgG2, lambda, V domains shown, also called WT; 4E4 Ab) VH: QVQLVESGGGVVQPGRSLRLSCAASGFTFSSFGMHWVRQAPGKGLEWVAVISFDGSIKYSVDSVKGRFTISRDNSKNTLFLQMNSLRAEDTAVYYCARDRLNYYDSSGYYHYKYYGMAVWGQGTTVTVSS VL: QSVLTQPPSVSAAPGQKVTISCSGSSSNIGNNYVSWYQQLPGTAPKLLIYDNNKRPSGIPDRFSGSKSGTSTTLGITGLQTGDEADYYCGTWDSRLSAVVFGGGTKLTVLG" measure=koff uom=s⁻¹ numeric_readout=0.00054
binder="4E4 light chain K67A single-point alanine variant antibody (antibody, V domains shown, Recombinantly expressed as a monoclonal antibody) VH: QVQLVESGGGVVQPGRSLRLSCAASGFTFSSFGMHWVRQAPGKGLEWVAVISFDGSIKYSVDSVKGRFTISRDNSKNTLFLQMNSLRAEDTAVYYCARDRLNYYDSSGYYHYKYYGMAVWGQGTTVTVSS VL: QSVLTQPPSVSAAPGQKVTISCSGSSSNIGNNYVSWYQQLPGTAPKLLIYDNNKRPSGIPDRFSGSASGTSTTLGITGLQTGDEADYYCGTWDSRLSAVVFGGGTKLTVLG" measure=koff uom=s⁻¹ numeric_readout=0.00046
binder="4E4 heavy chain D54A single-point alanine variant antibody (antibody, V domains shown, Recombinantly expressed as a monoclonal antibody) VH: QVQLVESGGGVVQPGRSLRLSCAASGFTFSSFGMHWVRQAPGKGLEWVAVISFAGSIKYSVDSVKGRFTISRDNSKNTLFLQMNSLRAEDTAVYYCARDRLNYYDSSGYYHYKYYGMAVWGQGTTVTVSS VL: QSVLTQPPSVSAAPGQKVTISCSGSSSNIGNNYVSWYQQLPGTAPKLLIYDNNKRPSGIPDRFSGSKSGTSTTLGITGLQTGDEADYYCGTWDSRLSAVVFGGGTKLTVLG" measure=koff uom=s⁻¹ numeric_readout=0.0026
binder="4E4 heavy chain K113A single-point alanine variant antibody (antibody, V domains shown, Recombinantly expressed as a monoclonal antibody) VH: QVQLVESGGGVVQPGRSLRLSCAASGFTFSSFGMHWVRQAPGKGLEWVAVISFDGSIKYSVDSVKGRFTISRDNSKNTLFLQMNSLRAEDTAVYYCARDRLNYYDSSGYYHYAYYGMAVWGQGTTVTVSS VL: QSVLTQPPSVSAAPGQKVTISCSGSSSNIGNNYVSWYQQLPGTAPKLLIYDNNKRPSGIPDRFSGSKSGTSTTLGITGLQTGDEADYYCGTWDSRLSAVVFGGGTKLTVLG" measure=koff uom=s⁻¹ numeric_readout=0.0006

Every entry's value here was drawn from patent US20220363770A1.
